Biological target: Nucleotide-binding oligomerization domain-containing protein 2 (Homo sapiens)
Sequence (Q9HC29 whole entry, the tested form may be a part): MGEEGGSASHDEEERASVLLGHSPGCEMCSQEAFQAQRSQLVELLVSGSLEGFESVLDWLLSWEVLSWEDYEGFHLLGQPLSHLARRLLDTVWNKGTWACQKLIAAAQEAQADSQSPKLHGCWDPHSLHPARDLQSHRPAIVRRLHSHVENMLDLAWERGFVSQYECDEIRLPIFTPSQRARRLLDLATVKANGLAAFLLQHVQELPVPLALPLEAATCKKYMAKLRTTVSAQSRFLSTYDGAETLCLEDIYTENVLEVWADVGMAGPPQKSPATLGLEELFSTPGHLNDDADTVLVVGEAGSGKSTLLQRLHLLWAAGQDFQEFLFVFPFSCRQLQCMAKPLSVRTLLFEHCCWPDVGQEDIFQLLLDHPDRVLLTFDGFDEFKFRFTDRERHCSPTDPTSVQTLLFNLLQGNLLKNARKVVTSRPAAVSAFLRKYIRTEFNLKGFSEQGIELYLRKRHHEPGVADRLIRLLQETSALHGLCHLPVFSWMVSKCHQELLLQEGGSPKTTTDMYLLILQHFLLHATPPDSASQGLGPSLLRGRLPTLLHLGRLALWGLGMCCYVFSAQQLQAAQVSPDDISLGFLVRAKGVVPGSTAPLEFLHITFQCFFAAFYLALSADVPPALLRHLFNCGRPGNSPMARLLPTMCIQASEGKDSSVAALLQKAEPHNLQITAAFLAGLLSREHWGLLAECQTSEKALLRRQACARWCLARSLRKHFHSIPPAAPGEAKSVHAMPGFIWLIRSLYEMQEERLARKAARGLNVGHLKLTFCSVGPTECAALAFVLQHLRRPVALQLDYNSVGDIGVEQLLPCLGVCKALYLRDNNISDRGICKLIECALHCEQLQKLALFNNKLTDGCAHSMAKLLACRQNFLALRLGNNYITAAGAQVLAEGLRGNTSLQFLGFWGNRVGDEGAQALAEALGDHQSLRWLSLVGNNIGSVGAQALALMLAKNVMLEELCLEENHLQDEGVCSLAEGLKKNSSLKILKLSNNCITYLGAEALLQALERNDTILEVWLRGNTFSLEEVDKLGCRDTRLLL
Test: inhibition of NOD2-driven NF-kB reporter – cell-based, luminescence, uHTS, HEK293 (AID 1566)
Type: functional
Activity calls are given as the source filed them. How the calls were made is not given here.
Outcomes you can answer with include only these: 1 (yes) (active), 0 (no) (inactive)

Record excerpt, results attached:
smiles_notation=Cc1ccc2oc(N=C(N)NC(=O)C(C)(C)C)nc2c1 class_assignment="1 (yes)"
smiles_notation=CCN(CC)c1ccc(S(=O)(=O)N2CCOCC2)cc1NC(=O)CN1CCc2ccccc2C1 class_assignment="1 (yes)"

QUERY: Any idea what this test logged for `C/C(=N\NC(=O)c1cc(Br)ccc1O)c1ccccn1` ?
RESULT: 0 (no)

QUERY: Any idea what this test logged for `FC(F)(F)c1cnc(NNC(=S)Nc2ccccc2Cl)c(Cl)c1` ?
RESULT: 1 (yes)
